The measurements presented in this section are drawn from paper PMC5104480.

- assayedTarget: UGT1A6 (Homo sapiens, UniProt P19224)
- Construct: purchased BD Biosciences (Woburn, MA, USA)
- Sequence (P19224 27-532): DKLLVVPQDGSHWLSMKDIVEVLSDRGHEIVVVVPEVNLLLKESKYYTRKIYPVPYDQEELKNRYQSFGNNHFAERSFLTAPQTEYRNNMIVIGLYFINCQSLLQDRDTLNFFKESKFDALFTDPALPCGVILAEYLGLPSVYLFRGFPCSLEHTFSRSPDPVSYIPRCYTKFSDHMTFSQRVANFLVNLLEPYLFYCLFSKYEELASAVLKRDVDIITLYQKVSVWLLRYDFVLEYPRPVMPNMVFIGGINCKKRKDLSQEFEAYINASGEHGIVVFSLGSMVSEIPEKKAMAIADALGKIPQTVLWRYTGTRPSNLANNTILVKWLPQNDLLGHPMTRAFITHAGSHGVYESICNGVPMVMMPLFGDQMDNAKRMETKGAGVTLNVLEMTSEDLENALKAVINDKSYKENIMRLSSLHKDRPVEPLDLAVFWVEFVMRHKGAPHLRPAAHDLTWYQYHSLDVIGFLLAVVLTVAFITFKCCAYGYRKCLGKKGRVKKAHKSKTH
- protocolNotes: Glucuronidation by human expressed UGT1A6 (screening and kinetics)
- Type: in vitro ADME
- appliedConditions: human, expressed (recombinant) human UGT1A6, pH 7.4, Vmax/Km
propertyName: microsomal CLint

q: # lookup: microsomal CLint of COc1ccc(-c2cc(=O)c3c(O)cc(O[C@@H]4O[C@H](C(=O)O)[C@@H](O)[C@H](O)[C@H]4O)cc3o2)cc1O [Dio-7-G, Diosmetin-7-O-glucuronide]
a: 300 µL/min/mg

* * *

Readings of Km for the listed molecules
- System: human liver microsomes (HLMs)
- protocolNotes: Glucuronidation kinetics of diosmetin and chrysoeriol by HLMs
- Type: in vitro ADME
- appliedConditions: formation of the named glucuronide from diosmetin or chrysoeriol
Lab book: enter the figure in µM, no units written.

Please review the entries below; each comes with its answer.
>  <molecule>
COc1cc(-c2cc(=O)c3c(O)cc(O)cc3o2)ccc1O[C@@H]1O[C@H](C(=O)O)[C@@H](O)[C@H](O)[C@H]1O [Chr-4′-G, chrysoeriol-4′-O-glucuronide]

>  <assayedTarget>
human liver microsomes (HLMs)

>  <Km / µM>
0.15

$$$$
>  <molecule>
COc1ccc(-c2cc(=O)c3c(O)cc(O)cc3o2)cc1O[C@@H]1O[C@H](C(=O)O)[C@@H](O)[C@H](O)[C@H]1O [Dio-3′-G, diosmetin-3′-O-glucuronide]

>  <assayedTarget>
human liver microsomes (HLMs)

>  <Km / µM>
0.19

$$$$
>  <molecule>
COc1ccc(-c2cc(=O)c3c(O)cc(O[C@@H]4O[C@H](C(=O)O)[C@@H](O)[C@H](O)[C@H]4O)cc3o2)cc1O [Dio-7-G, Diosmetin-7-O-glucuronide]

>  <assayedTarget>
human liver microsomes (HLMs)

>  <Km / µM>
4.66

$$$$

We next turn to a different molecule, shown below.
q: # lookup: Km of COc1cc(-c2cc(=O)c3c(O)cc(O[C@@H]4O[C@H](C(=O)O)[C@@H](O)[C@H](O)[C@H]4O)cc3o2)ccc1O [Chr-7-G, chrysoeriol-7-O-glucuronide]
a: 3.83

* * *

- assayedTarget: UGT1A1 (Homo sapiens, UniProt P22309)
- Construct: purchased BD Biosciences (Woburn, MA, USA)
- Sequence (P22309 26-533): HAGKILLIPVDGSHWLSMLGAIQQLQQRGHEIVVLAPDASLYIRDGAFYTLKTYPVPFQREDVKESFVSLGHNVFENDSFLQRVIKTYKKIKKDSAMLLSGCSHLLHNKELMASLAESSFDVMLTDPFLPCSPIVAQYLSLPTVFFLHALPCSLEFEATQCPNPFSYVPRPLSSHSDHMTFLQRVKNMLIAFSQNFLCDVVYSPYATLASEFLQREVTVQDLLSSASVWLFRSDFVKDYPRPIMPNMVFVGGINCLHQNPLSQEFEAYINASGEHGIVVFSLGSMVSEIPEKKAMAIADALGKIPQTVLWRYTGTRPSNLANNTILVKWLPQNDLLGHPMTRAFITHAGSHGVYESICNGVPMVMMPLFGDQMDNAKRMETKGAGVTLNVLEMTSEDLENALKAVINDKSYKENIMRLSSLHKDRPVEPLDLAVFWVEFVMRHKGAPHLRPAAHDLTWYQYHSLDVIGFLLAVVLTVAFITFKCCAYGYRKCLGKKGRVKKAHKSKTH
- protocolNotes: Glucuronidation kinetics by human expressed UGT1A1
- Type: in vitro ADME
- appliedConditions: human, expressed (recombinant) human UGT1A1, pH 7.4, Vmax/Km
propertyName: microsomal CLint
State the value with its unit after it.

q: # lookup: microsomal CLint of COc1cc(-c2cc(=O)c3c(O)cc(O)cc3o2)ccc1O[C@@H]1O[C@H](C(=O)O)[C@@H](O)[C@H](O)[C@H]1O [Chr-4′-G, chrysoeriol-4′-O-glucuronide]
a: 2260 µL/min/mg

* * *

Readings of substrate concentration at which the excretion rate reached a peak for the listed compounds
- Test system: HeLa—UGT1A9 cells
- protocolNotes: Glucuronide excretion at different substrate concentrations in HeLa—UGT1A9 cells
- Type: cell-based
- appliedConditions: diosmetin or chrysoeriol 1.25-40 μM
Lab book: enter the figure in µM, no units written.

>  <compound>
COc1ccc(-c2cc(=O)c3c(O)cc(O[C@@H]4O[C@H](C(=O)O)[C@@H](O)[C@H](O)[C@H]4O)cc3o2)cc1O [Dio-7-G, Diosmetin-7-O-glucuronide]

>  <unitOfMeasure>
µM

>  <measuredValue>
10

$$$$
>  <compound>
COc1cc(-c2cc(=O)c3c(O)cc(O[C@@H]4O[C@H](C(=O)O)[C@@H](O)[C@H](O)[C@H]4O)cc3o2)ccc1O [Chr-7-G, chrysoeriol-7-O-glucuronide]

>  <unitOfMeasure>
µM

>  <measuredValue>
2.5

$$$$
>  <compound>
COc1ccc(-c2cc(=O)c3c(O)cc(O)cc3o2)cc1O[C@@H]1O[C@H](C(=O)O)[C@@H](O)[C@H](O)[C@H]1O [Dio-3′-G, diosmetin-3′-O-glucuronide]

>  <unitOfMeasure>
µM

>  <measuredValue>
2.5

$$$$

We next turn to a different compound, shown below.
q: # lookup: substrate concentration at which the excretion rate reached a peak of COc1cc(-c2cc(=O)c3c(O)cc(O)cc3o2)ccc1O[C@@H]1O[C@H](C(=O)O)[C@@H](O)[C@H](O)[C@H]1O [Chr-4′-G, chrysoeriol-4′-O-glucuronide]
a: 2.5

* * *

- protocolNotes: Glucuronidation kinetics of diosmetin and chrysoeriol by HLMs
- Format: in vitro ADME, human
- appliedConditions: human, liver microsomes, pH 7.4, Vmax/Km, formation of the named glucuronide
Readings of microsomal CLint for the listed compounds
Lab book: enter the figure in µL/min/mg, no units written.

>  <compound>
COc1ccc(-c2cc(=O)c3c(O)cc(O)cc3o2)cc1O[C@@H]1O[C@H](C(=O)O)[C@@H](O)[C@H](O)[C@H]1O [Dio-3′-G, diosmetin-3′-O-glucuronide]

>  <microsomal CLint, µL/min/mg>
6250

$$$$
>  <compound>
COc1ccc(-c2cc(=O)c3c(O)cc(O[C@@H]4O[C@H](C(=O)O)[C@@H](O)[C@H](O)[C@H]4O)cc3o2)cc1O [Dio-7-G, Diosmetin-7-O-glucuronide]

>  <microsomal CLint, µL/min/mg>
130

$$$$
>  <compound>
COc1cc(-c2cc(=O)c3c(O)cc(O)cc3o2)ccc1O[C@@H]1O[C@H](C(=O)O)[C@@H](O)[C@H](O)[C@H]1O [Chr-4′-G, chrysoeriol-4′-O-glucuronide]

>  <microsomal CLint, µL/min/mg>
1270

$$$$

We next turn to a different compound, shown below.
q: # lookup: microsomal CLint of COc1cc(-c2cc(=O)c3c(O)cc(O[C@@H]4O[C@H](C(=O)O)[C@@H](O)[C@H](O)[C@H]4O)cc3o2)ccc1O [Chr-7-G, chrysoeriol-7-O-glucuronide]
a: 40
